Measured clearance by item
protocol: Clearance in rat at 0.5 mg/kg, iv and 1.5 mg/kg, po
Format: ADME, organism-based
condition: in vivo
Report the value in mL/min/kg with no unit label.

* CCC(COC)n1c(=O)c(C)nc2c(-c3cc(Cl)c(OC)cc3C)ccnc21 (configuration not stated) | 9.5

// next entry
Could you share which clearance value was measured for COCC(C1CC1)n1c(=O)c(C)nc2c(-c3cc(F)c(OC)cc3Cl)ncnc21 (configuration not stated) ?
33.7

---

protocol: Fraction unbound in rat plasma
Format: ADME, cell-free
measured metric: fraction unbound
I'd appreciate a reply containing only the number, no unit.

• CC[C@@H](C1CC1)n1c(=O)c(C)nc2c(-c3ccc(Cl)cc3Cl)ccnc21 = 0.002
• CCC(C1CC1)n1c(=O)c(C)nc2c(-c3cc(Cl)c(OC(F)F)cc3C)ccnc21 (racemic) = 0.003
• CCC(COC)n1c(=O)c(C)nc2c(-c3cc(F)c(OC)cc3Cl)ccnc21 (stereo not given) = 0.03
• COc1ccc(-c2ccnc3c2nc(C)c(=O)n3C(C2CC2)C2CC2)c(C)c1 = 0.03

Read the next record carefully.
Fill in the blank: the reported fraction unbound of `CC[C@H](COC)n1c(=O)c(C)nc2c(-c3ccc(Cl)cc3Cl)ccnc21` is ____.
0.004

---

target system: Corticotropin-releasing factor receptor 1 (Rattus norvegicus)
Sequence (P35353 whole entry): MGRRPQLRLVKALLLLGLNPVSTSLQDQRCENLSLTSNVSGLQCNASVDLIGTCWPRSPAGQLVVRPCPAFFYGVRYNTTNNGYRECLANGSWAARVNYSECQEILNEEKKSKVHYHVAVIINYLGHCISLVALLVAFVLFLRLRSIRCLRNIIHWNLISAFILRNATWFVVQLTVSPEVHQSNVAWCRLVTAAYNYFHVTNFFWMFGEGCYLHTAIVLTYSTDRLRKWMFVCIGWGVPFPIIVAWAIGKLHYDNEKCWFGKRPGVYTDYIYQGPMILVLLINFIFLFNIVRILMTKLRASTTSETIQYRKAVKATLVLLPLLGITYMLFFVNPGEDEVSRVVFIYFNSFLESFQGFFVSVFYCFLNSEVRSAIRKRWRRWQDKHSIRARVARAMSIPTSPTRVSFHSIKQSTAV
protocol: Antagonist activity at rat CFR1R
Threshold-based label: IC50 under 20 nM gives class 1, IC50 not under 20 nM gives class 0.

Take a look at these entries with their results.
* CC[C@H](C1CC1)n1c(=O)c(C)nc2c(-c3cc(C)c(OC)cc3C)ccnc21 | class 0
* CCC(C1CC1)n1c(=O)c(C)nc2c(-c3cc(Cl)c(OC(F)F)cc3C)ccnc21 (racemic) | class 1
* CC[C@H](C1CC1)n1c(=O)c(C)nc2c(-c3ccc(OC)nc3C)ccnc21 | class 0
* CCC(C1CC1)n1c(=O)c(C)nc2c(-c3cc(C)c(OC(C)C)cc3Cl)ccnc21 (racemic) | class 1

A record lists `CC[C@H](COC)n1c(=O)c(C)nc2c(-c3ccc(Cl)cc3Cl)nccc21` . Is its IC50 below 20 nM?
class 0

Next molecule: CCC(C1CC1)n1c(=O)c(C)nc2c(-c3cc(F)c(OC)cc3F)ccnc21 (racemic)
class 0

# iterate: CCC(C1CC1)n1c(=O)c(C)nc2c(-c3cc(C)c(OC)cc3Cl)ccnc21 (racemic)
class 1

Field entry: `CC[C@H](C1CC1)n1c(=O)c(C)nc2c(-c3cc(C)c(OC)nc3C)ccnc21`
class 1

Then this molecule: `CC[C@H](C1CC1)n1c(=O)c(C)nc2c(-c3ccc(Cl)cc3Cl)ccnc21`
class 1

---

Below: a set of entries, each annotated with reported fraction unbound.
protocol: Fraction unbound in rat plasma
Type: ADME, cell-free

• CCC(C1CC1)n1c(=O)c(C)nc2c(-c3cc(F)c(N(C)C)cc3Cl)ccnc21 (racemic) = < 0.002
• CCC(C1CC1)n1c(=O)c(C)nc2c(-c3cc(C)c(OC)cc3Cl)ccnc21 (racemic) = < 0.002

Attention now shifts to the item below.
Which fraction unbound is listed for COCC(C1CC1)n1c(=O)c(C)nc2c(-c3cc(F)c(OC)cc3Cl)ccnc21 (stereo not drawn) ?
< 0.002
